# System: NB4 cell line
# EXPERIMENT: leukemia cell growth inhibition, MTT
# Assay type: cell-based
# STATED_CONDITIONS: Homo sapiens, NB-4; NB4, 16 μg/mL compound, 72 h; read-out: IR (cell proliferation inhibition rate)
In this section we review reported inhibition at 16 µg/mL values for a set of molecules.

| MOLECULE | STUDY_SYSTEM | inhibition at 16 µg/mL [%] |
| --- | --- | --- |
| CCN(CC)CCCNC(=O)C1C[C@@]2(C)C(CC[C@]3(C)C2CC=C2C4CC(C)(C)CC[C@]4(C(=O)O)CC[C@]23C)C(C)(C)C1=O (stereo partly drawn) | NB4 cell line | 92.4 |
| COC(=O)[C@]12CCC(C)(C)CC1C1=CCC3[C@@]4(C)CC(C(=O)NCCCN5CCN(C)CC5)C(=O)C(C)(C)C4CC[C@@]3(C)[C@]1(C)CC2 (stereo partly drawn) | NB4 cell line | 100 |
| COC(=O)[C@]12CCC(C)(C)C[C@H]1C1=CC[C@@H]3[C@@]4(C)CC(C(=O)NCCN5CCOCC5)C(=O)C(C)(C)[C@@H]4CC[C@@]3(C)[C@]1(C)CC2 (stereo partly drawn) | NB4 cell line | 86.7 |
